Test system: H9c2
Assay: protection of cardiomyocytes from stress damage, SAR follow-up, cell-based, panel, H9c2 and HL-1, H2O2, 2-deoxyglucose, ATP luminescence (AID 651642)
Details: H9c2/HL-1 cardiomyocyte 2-deoxyglucose damage, mean of runs, with 2-deoxyglucose
Activity calls are given as the source filed them.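 Rule for the calls: active = average half-effect concentration of 10 µM or less in every one of the four cell panels; inactive = the rest.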
test readout: outcome

Here are 5 molecules together with their reported answers.
{"columns": ["molecule", "outcome"],
 "data": [
  ["COc1cc(-c2cc(C(=O)NCC(=O)Nc3cccc(C(C)=O)c3)c3cccc(Cl)c3n2)cc(OC)c1OC", "inactive"],
  ["COc1ccc2c(c1OC)C(=O)N1c3ccccc3C(=O)N(Cc3cccc(C)c3)C21 (stereo not given)", "inactive"],
  ["COc1cc(-c2cc(C(=O)Nc3cccc(C(=O)O)c3)c3ccccc3n2)cc(OC)c1OC", "inactive"],
  ["CCOC(=O)c1cccc(NC(=O)c2cc(-c3cc(OC)c(OC)c(OC)c3)nc3ccccc23)c1", "inactive"],
  ["COc1ccc2nc(-c3cc(OC)c(OC)c(OC)c3)cc(C(=O)NCC(=O)Nc3cccc(C(C)=O)c3)c2c1", "active"]
]}

query: Dear colleague, I am looking for the recorded outcome of the following molecule: `COc1cc(-c2cc(C(=O)Nc3cccc(-c4nn[nH]n4)c3)c3ccccc3n2)cc(OC)c1OC`
result: inactive

query: Dear colleague, I am looking for the recorded outcome of the following molecule: `CCOC(=O)c1cccc(NC(=O)c2cc(-c3cc(OC)c(OC)c(OC)c3)nc3ccc(Cl)cc23)c1`
result: inactive
